System: HeLa Kyoto
Assay: thermal stability score vs G1/S (z-score of summed log2 fold changes over temperatures); higher = more thermally stable than in G1/S
Settings: cell cycle stage: mitosis
Categorize each record by its thermal stability score using interval 1 (below -0.5), interval 2 (-0.5 to below 0.5), interval 3 (0.5 or more)

{"columns": ["Sequence entry", "Class label"],
 "data": [
  ["MASPSLERPEKGAGKSEFRNQKPKPENQDESELLTVPDGWKEPAFSKEDNPRGLLEESSFATLFPKYREAYLKECWPLVQKALNEHHVNATLDLIEGSMTVCTTKKTFDPYIIIRARDLIKLLARSVSFEQAVRILQDDVACDIIKIGSLVRNKERFVKRRQRLIGPKGSTLKALELLTNCYIMVQGNTVSAIGPFSGLKEVRKVVLDTMKNIHPIYNIKSLMIKRELAKDSELRSQSWERFLPQFKHKNVNKRKEPKKKTVKKEYTPFPPPQPESQIDKELASGEYFLKANQKKRQKMEAIKAKQAEAISKRQEERNKAFIPPKEKPIVKPKEASTETKIDVASIKEKVKKAKNKKLGALTAEEIALKMEADEKKKKKKK [KRR1]", "interval 3"],
  ["MATAALLRGATPGRGGPVWRWRLRAAPRCRLAHSSCSPGGDPTAGAAWACFRLDGRTLLRVRGPDAAPFLLGLLTNELPLPSPAAAGAPPAARAGYAHFLNVQGRTLYDVILYGLQEHSEVSGFLLECDSSVQGALQKHLALYRIRRKVTVEPHPELRVWAVLPSSPEACGAASLQERAGAAAILIRDPRTARMGWRLLTQDEGPALVPGGRLGDLWDYHQHRYLQGVPEGVRDLPPGVALPLESNLAFMNGVSFTKGCYIGQELTARTHHMGVIRKRLFPVRFLDPLPTSGITPGATVLTASGQTVGKFRAGQGNVGLALLWSEKIKGPLHIRASEGAQVALAASVPDWWPTVSK [IBA57]", "interval 1"],
  ["MGAPLLSPGWGAGAAGRRWWMLLAPLLPALLLVRPAGALVEGLYCGTRDCYEVLGVSRSAGKAEIARAYRQLARRYHPDRYRPQPGDEGPGRTPQSAEEAFLLVATAYETLKDEETRKDYDYMLDHPEEYYSHYYHYYSRRLAPKVDVRVVILVSVCAISVFQFFSWWNSYNKAISYLATVPKYRIQATEIAKQQGLLKKAKEKGKNKKSKEEIRDEEENIIKNIIKSKIDIKGGYQKPQICDLLLFQIILAPFHLCSYIVWYCRWIYNFNIKGKEYGEEERLYIIRKSMKMSKSQFDSLEDHQKETFLKRELWIKENYEVYKQEQEEELKKKLANDPRWKRYRRWMKNEGPGRLTFVDD [DNAJC25]", "interval 2"],
  ["MLAVHFDKPGGPENLYVKEVAKPSPGEGEVLLKVAASALNRADLMQRQGQYDPPPGASNILGLEASGHVAELGPGCQGHWKIGDTAMALLPGGGQAQYVTVPEGLLMPIPEGLTLTQAAAIPEAWLTAFQLLHLVGNVQAGDYVLIHAGLSGVGTAAIQLTRMAGAIPLVTAGSQKKLQMAEKLGAAAGFNYKKEDFSEATLKFTKGAGVNLILDCIGGSYWEKNVNCLALDGRWVLYGLMGGGDINGPLFSKLLFKRGSLITSLLRSRDNKYKQMLVNAFTEQILPHFSTEGPQRLLPVLDRIYPVTEIQEAHKYMEANKNIGKIVLELPQ [TP53I3]", "interval 1"],
  ["MRGKTFRFEMQRDLVSFPLSPAVRVKLVSAGFQTAEELLEVKPSELSKEVGISKAEALETLQIIRRECLTNKPRYAGTSESHKKCTALELLEQEHTQGFIITFCSALDDILGGGVPLMKTTEICGAPGVGKTQLCMQLAVDVQIPECFGGVAGEAVFIDTEGSFMVDRVVDLATACIQHLQLIAEKHKGEEHRKALEDFTLDNILSHIYYFRCRDYTELLAQVYLLPDFLSEHSKVRLVIVDGIAFPFRHDLDDLSLRTRLLNGLAQQMISLANNHRLAVILTNQMTTKIDRNQALLVPALGESWGHAATIRLIFHWDRKQRLATLYKSPSQKECTVLFQIKPQGFRDTVVTSACSLQTEGSLSTRKRSRDPEEEL [RAD51C]", "interval 1"],
  ["MSHTEVKLKIPFGNKLLDAVCLVPNKSLTYGIILTHGASGDMNLPHLMSLASHLASHGFFCLRFTCKGLNIVHRIKAYKSVLNYLKTSGEYKLAGVFLGGRSMGSRAAASVMCHIEPDDGDDFVRGLICISYPLHHPKQQHKLRDEDLFRLKEPVLFVSGSADEMCEKNLLEKVAQKMQAPHKIHWIEKANHSMAVKGRSTNDVFKEINTQILFWIQEITEMDKKCH [TEX30]", "interval 3"],
  ["MAKTYDYLFKLLLIGDSGVGKTCVLFRFSEDAFNSTFISTIGIDFKIRTIELDGKRIKLQIWDTAGQERFRTITTAYYRGAMGIMLVYDITNEKSFDNIRNWIRNIEEHASADVEKMILGNKCDVNDKRQVSKERGEKLALDYGIKFMETSAKANINVENAFFTLARDIKAKMDKKLEGNSPQGSNQGVKITPDQQKRSSFFRCVLL [RAB8A]", "interval 3"],
  ["MIIYRDLISHDEMFSDIYKIREIADGLCLEVEGKMVSRTEGNIDDSLIGGNASAEGPEGEGTESTVITGVDIVMNHHLQETSFTKEAYKKYIKDYMKSIKGKLEEQRPERVKPFMTGAAEQIKHILANFKNYQFFIGENMNPDGMVALLDYREDGVTPYMIFFKDGLEMEKC [TPT1]", "interval 2"],
  ["MTTLDDKLLGEKLQYYYSSSEDEDSDHEDKDRGRCAPASSSVPAEAELAGEGISVNTGPKGVINDWRRFKQLETEQREEQCREMERLIKKLSMTCRSHLDEEEEQQKQKDLQEKISGKMTLKEFAIMNEDQDDEEFLQQYRKQRMEEMRQQLHKGPQFKQVFEISSGEGFLDMIDKEQKSIVIMVHIYEDGIPGTEAMNGCMICLAAEYPAVKFCKVKSSVIGASSQFTRNALPALLIYKGGELIGNFVRVTDQLGDDFFAVDLEAFLQEFGLLPEKEVLVLTSVRNSATCHSEDSDLEID [PDCL]", "interval 1"]
]}

* * *

This section presents sequences with their documented melting temperature values.
Tested on: HeLa Kyoto
Test: melting temperature (median over replicates), in situ; higher = more thermally stable
Settings: cell cycle stage: G1/S

{"columns": ["Sequence entry", "Study target", "melting temperature"],
 "data": [
  ["MAPLDLDKYVEIARLCKYLPENDLKRLCDYVCDLLLEESNVQPVSTPVTVCGDIHGQFYDLCELFRTGGQVPDTNYIFMGDFVDRGYYSLETFTYLLALKAKWPDRITLLRGNHESRQITQVYGFYDECQTKYGNANAWRYCTKVFDMLTVAALIDEQILCVHGGLSPDIKTLDQIRTIERNQEIPHKGAFCDLVWSDPEDVDTWAISPRGAGWLFGAKVTNEFVHINNLKLICRAHQLVHEGYKFMFDEKLVTVWSAPNYCYRCGNIASIMVFKDVNTREPKLFRAVPDSERVIPPRTTTPYFL [PPP6C]", "HeLa Kyoto", "53.7 °C"],
  ["MARCERLRGAALRDVLGRAQGVLFDCDGVLWNGERAVPGAPELLERLARAGKAALFVSNNSRRARPELALRFARLGFGGLRAEQLFSSALCAARLLRQRLPGPPDAPGAVFVLGGEGLRAELRAAGLRLAGDPSAGDGAAPRVRAVLVGYDEHFSFAKLREACAHLRDPECLLVATDRDPWHPLSDGSRTPGTGSLAAAVETASGRQALVVGKPSPYMFECITENFSIDPARTLMVGDRLETDILFGHRCGMTTVLTLTGVSRLEEAQAYLAAGQHDLVPHYYVESIADLTEGLED [PDXP]", "HeLa Kyoto", "56.7 °C"],
  ["MLETLRERLLSVQQDFTSGLKTLSDKSREAKVKSKPRTVPFLPKYSAGLELLSRYEDTWAALHRRAKDCASAGELVDSEVVMLSAHWEKKKTSLVELQEQLQQLPALIADLESMTANLTHLEASFEEVENNLLHLEDLCGQCELERCKHMQSQQLENYKKNKRKELETFKAELDAEHAQKVLEMEHTQQMKLKERQKFFEEAFQQDMEQYLSTGYLQIAERREPIGSMSSMEVNVDMLEQMDLMDISDQEALDVFLNSGGEENTVLSPALGPESSTCQNEITLQVPNPSELRAKPPSSSSTCTDSATRDISEGGESPVVQSDEEEVQVDTALATSHTDREATPDGGEDSDS [DTNBP1]", "HeLa Kyoto", "54.1 °C"],
  ["MAELRVLVAVKRVIDYAVKIRVKPDRTGVVTDGVKHSMNPFCEIAVEEAVRLKEKKLVKEVIAVSCGPAQCQETIRTALAMGADRGIHVEVPPAEAERLGPLQVARVLAKLAEKEKVDLVLLGKQAIDDDCNQTGQMTAGFLDWPQGTFASQVTLEGDKLKVEREIDGGLETLRLKLPAVVTADLRLNEPRYATLPNIMKAKKKKIEVIKPGDLGVDLTSKLSVISVEDPPQRTAGVKVETTEDLVAKLKEIGRI [ETFB]", "HeLa Kyoto", "54 °C"],
  ["MRLGPRTAALGLLLLCAAAAGAGKAEELHYPLGERRSDYDREALLGVQEDVDEYVKLGHEEQQKRLQAIIKKIDLDSDGFLTESELSSWIQMSFKHYAMQEAKQQFVEYDKNSDDTVTWDEYNIQMYDRVIDFDENTALDDAEEESFRKLHLKDKKRFEKANQDSGPGLSLEEFIAFEHPEEVDYMTEFVIQEALEEHDKNGDGFVSLEEFLGDYRWDPTANEDPEWILVEKDRFVNDYDKDNDGRLDPQELLPWVVPNNQGIAQEEALHLIDEMDLNGDKKLSEEEILENPDLFLTSEATDYGRQLHDDYFYHDEL [RCN2]", "HeLa Kyoto", "54.1 °C"]
]}
